PBM binding z-score listing for selected sequences.
Test system: PXR:RXRa (NR concentration 270 nM, RXRa partner concentration 90 nM)
test-name: PBM binding z-score (relative to random genomic background probes); higher = stronger binding; sequences stand for … in GC…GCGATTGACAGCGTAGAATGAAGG
Write no unit; give the number alone.

-- ask Record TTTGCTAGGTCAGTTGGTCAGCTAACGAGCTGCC : what is its PBM binding z-score with PXR:RXRa (NR concentration 270 nM, RXRa partner concentration 90 nM)?
-- reply 0.0416

-- ask Record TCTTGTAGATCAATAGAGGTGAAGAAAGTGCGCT : what is its PBM binding z-score with PXR:RXRa (NR concentration 270 nM, RXRa partner concentration 90 nM)?
-- reply 1.52

-- ask Record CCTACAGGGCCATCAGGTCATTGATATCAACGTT : what is its PBM binding z-score with PXR:RXRa (NR concentration 270 nM, RXRa partner concentration 90 nM)?
-- reply 1.71

-- ask Record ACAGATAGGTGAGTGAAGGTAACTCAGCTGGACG : what is its PBM binding z-score with PXR:RXRa (NR concentration 270 nM, RXRa partner concentration 90 nM)?
-- reply -0.303

-- ask Record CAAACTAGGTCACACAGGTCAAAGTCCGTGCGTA : what is its PBM binding z-score with PXR:RXRa (NR concentration 270 nM, RXRa partner concentration 90 nM)?
-- reply 4.78

-- ask Record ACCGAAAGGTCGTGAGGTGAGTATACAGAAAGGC : what is its PBM binding z-score with PXR:RXRa (NR concentration 270 nM, RXRa partner concentration 90 nM)?
-- reply 3.29

---

PBM binding z-score listing for selected sequences.
Tested on: LXRb:RXRa (NR concentration 270 nM, RXRa partner concentration 90 nM)
test-name: PBM binding z-score (relative to random genomic background probes); higher = stronger binding; sequences stand for … in GC…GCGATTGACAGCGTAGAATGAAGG
Write no unit; give the number alone.

CCTAGTTGGTCAGGAGGTCACAGACCGGATATGA : 3.38
GCTTGAAGATCAAGGTTAAGAAAGACTAAGCTAA : 0.434
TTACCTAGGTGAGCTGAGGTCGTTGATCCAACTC : 0.389

-- ask Requested read-out: PBM binding z-score. Entry: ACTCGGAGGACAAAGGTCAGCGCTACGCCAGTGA
-- reply 3.51

-- ask Requested read-out: PBM binding z-score. Entry: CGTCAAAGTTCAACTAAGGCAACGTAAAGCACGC
-- reply 3.9

---

PBM binding z-score listing for selected sequences.
Test system: LXRb:RXRa (NR concentration 270 nM, RXRa partner concentration 90 nM)
test-name: PBM binding z-score (relative to random genomic background probes); higher = stronger binding; sequences stand for … in GC…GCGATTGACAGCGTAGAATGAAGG
Write no unit; give the number alone.

Known PBM binding z-score results, listed for orientation:
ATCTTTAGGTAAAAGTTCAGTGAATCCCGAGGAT : 0.973
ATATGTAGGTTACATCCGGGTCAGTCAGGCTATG : 1.74
CCTAGCAGGCCTGGGTCACTCAAGCATTTCGCTT : 0.861
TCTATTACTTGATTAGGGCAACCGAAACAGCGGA : 0.812
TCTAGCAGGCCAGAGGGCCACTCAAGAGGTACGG : -0.58
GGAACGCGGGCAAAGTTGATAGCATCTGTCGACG : -0.893
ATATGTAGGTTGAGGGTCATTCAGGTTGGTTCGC : 3.31
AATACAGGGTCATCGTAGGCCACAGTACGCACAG : 4.97

-- ask Requested read-out: PBM binding z-score. Entry: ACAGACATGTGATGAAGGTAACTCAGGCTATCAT
-- reply -0.35

-- ask Requested read-out: PBM binding z-score. Entry: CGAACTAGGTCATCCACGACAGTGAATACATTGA
-- reply 2.23

-- ask Requested read-out: PBM binding z-score. Entry: ACTTACGGGTCAACGAGGCTATAGCACGCGTATA
-- reply 3.85

-- ask Requested read-out: PBM binding z-score. Entry: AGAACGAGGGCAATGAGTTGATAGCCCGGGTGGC
-- reply -0.437

-- ask Requested read-out: PBM binding z-score. Entry: TGAATGGGGTTATAAGATCAGGGAACGTTGCAAA
-- reply 4

-- ask Requested read-out: PBM binding z-score. Entry: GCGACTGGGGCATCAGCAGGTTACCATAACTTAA
-- reply 0.704

-- ask Requested read-out: PBM binding z-score. Entry: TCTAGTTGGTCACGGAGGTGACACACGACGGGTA
-- reply 0.335

---

Tested on: FXR:RXRa (NR concentration 270 nM, RXRa partner concentration 90 nM)
test-name: PBM binding z-score (relative to random genomic background probes); higher = stronger binding; sequences stand for … in GC…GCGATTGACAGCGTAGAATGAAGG
PBM binding z-score listing for selected sequences.
Write no unit; give the number alone.

Known PBM binding z-score results, listed for orientation:
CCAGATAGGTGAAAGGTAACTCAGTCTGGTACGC : 0.688
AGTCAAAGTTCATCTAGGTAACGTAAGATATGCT : 6.73
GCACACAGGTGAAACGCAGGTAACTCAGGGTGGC : 0.021
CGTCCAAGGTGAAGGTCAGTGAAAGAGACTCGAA : 1.84
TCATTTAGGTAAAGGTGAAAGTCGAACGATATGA : 1.18
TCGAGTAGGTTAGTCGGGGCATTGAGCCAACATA : -0.211
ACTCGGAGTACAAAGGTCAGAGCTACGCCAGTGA : 4.23
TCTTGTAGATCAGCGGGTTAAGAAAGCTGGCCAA : 0.495
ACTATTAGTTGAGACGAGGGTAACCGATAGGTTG : 0.247
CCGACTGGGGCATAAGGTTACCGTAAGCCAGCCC : 0.834

-- ask Requested read-out: PBM binding z-score. Entry: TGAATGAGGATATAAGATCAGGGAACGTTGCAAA
-- reply 0.013

-- ask Requested read-out: PBM binding z-score. Entry: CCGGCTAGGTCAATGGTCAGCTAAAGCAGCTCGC
-- reply 3.18

-- ask Requested read-out: PBM binding z-score. Entry: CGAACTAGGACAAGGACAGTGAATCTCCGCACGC
-- reply 0.182

-- ask Requested read-out: PBM binding z-score. Entry: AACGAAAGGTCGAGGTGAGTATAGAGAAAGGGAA
-- reply 4.3

-- ask Requested read-out: PBM binding z-score. Entry: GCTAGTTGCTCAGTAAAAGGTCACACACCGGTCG
-- reply 3.27

-- ask Requested read-out: PBM binding z-score. Entry: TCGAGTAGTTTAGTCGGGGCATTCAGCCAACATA
-- reply -0.125

---

Test system: RARa homodimer (NR concentration 270 nM)
test-name: PBM binding z-score (relative to random genomic background probes); higher = stronger binding; sequences stand for … in GC…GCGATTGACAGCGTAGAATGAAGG
# thresholds on PBM binding z-score define classes: bin A: < -0.1; bin B: ≥ -0.1 and < 1; bin C: ≥ 1

Take a look at these entries with their results.
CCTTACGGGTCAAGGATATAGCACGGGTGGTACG : bin B
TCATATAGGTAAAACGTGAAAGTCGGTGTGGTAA : bin C
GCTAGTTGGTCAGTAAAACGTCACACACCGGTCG : bin A
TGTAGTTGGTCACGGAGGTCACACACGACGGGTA : bin B
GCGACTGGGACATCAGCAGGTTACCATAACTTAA : bin A
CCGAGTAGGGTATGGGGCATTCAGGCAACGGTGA : bin B
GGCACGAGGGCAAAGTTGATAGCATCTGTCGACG : bin A
CGAACGAGGGCATGAGTTGATACCAAATGCCGAT : bin A

-- ask Class? Entry: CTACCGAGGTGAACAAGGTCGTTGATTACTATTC
-- reply bin A

-- ask Class? Entry: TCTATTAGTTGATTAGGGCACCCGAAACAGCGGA
-- reply bin C

-- ask Class? Entry: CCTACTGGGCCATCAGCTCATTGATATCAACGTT
-- reply bin A

-- ask Class? Entry: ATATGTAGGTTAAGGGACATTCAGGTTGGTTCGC
-- reply bin C

-- ask Class? Entry: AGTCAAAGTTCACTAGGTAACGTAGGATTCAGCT
-- reply bin B

-- ask Class? Entry: CCTAGTCGGTCAGGAGGTCACACACCGGATATGA
-- reply bin C

-- ask Class? Entry: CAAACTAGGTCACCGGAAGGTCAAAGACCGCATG
-- reply bin C

---

PBM binding z-score listing for selected sequences.
Test system: PPARg:RXRa (NR concentration 180 nM, RXRa partner concentration 90 nM)
test-name: PBM binding z-score (relative to random genomic background probes); higher = stronger binding; sequences stand for … in GC…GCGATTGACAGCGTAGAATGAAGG

Known PBM binding z-score results, listed for orientation:
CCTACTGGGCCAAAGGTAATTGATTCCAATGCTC : 8.76
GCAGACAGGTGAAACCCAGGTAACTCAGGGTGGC : 0.657
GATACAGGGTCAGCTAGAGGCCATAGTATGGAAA : 4.05

-- ask Record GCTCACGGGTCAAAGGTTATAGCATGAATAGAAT : what is its PBM binding z-score with PPARg:RXRa (NR concentration 180 nM, RXRa partner concentration 90 nM)?
-- reply 9.36

-- ask Record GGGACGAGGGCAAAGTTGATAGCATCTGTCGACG : what is its PBM binding z-score with PPARg:RXRa (NR concentration 180 nM, RXRa partner concentration 90 nM)?
-- reply 6.58
